The compounds listed here are annotated with their Ratio.
# Test system: Plasma
# assay-explanation: Anticoagulant activity in human plasma assessed as international normalized ratio at 1 mg/ml
# Type: functional
readout-label: Ratio

structure-smiles	measured-number
C/C(=C(\C#N)C(=O)O)c1c(O)c2ccccc2oc1=O	2.25
CC(=O)C(C(C)=O)=C(C)c1c(O)c2ccccc2oc1=O	1.55
CCOC(=O)C(C(=O)OCC)=C(C)c1c(O)c2ccccc2oc1=O	1.99
O=c1oc2ccccc2c(O)c1-c1csc(Nc2ccc(S(=O)(=O)O)cc2)n1	2.6
CCN(CC)c1nc(-c2c(O)c3ccccc3oc2=O)cs1	1.75
COC(=O)/C(C(=O)O)=C(\C)c1c(O)c2ccccc2oc1=O	1.9
